Test: self-splicing fitness, log relative to wild type (ln ratio); higher = more splicing; Tetrahymena group I intron in knt gene, E. coli kanamycin selection, DiMSum; sequences stand for … in CUCUCU…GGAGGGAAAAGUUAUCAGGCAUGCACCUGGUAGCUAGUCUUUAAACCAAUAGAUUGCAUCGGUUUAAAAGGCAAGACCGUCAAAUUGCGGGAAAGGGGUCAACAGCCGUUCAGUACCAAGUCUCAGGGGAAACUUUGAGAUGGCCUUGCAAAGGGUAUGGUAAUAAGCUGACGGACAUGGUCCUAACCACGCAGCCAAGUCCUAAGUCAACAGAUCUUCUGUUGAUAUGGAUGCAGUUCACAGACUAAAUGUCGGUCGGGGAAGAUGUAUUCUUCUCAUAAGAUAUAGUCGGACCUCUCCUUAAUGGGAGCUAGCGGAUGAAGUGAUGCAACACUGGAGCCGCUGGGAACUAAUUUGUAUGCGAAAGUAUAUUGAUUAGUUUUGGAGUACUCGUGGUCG;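 note: selection with 25 µg/mL kanamycin versus none on LB agar overnight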
Conditions: 37 °C
self-splicing fitness (ln): recorded values
Please reply with the number alone, leaving off any unit.

Study these solved cases before continuing.
AUAUAGCAAUAUUACGUUGA; -2.53
CUUCAGCAAUAUUACGGUAU; -2
AGACAGCAAUAUUACGGCCC; -0.253
CCCAAGCAAUAUUACGUAGC; -2.74
AUCCAGCAAUAUUACGCCAU; -1.27

Query :: Param item = CCGUAGCAAUAUUACGCCAA ; retrieve measured self-splicing fitness (ln).
Result :: -2.77

Query :: Param item = GAGAAGCAAUAUUACGAAUG ; retrieve measured self-splicing fitness (ln).
Result :: -1.7

Query :: Param item = UGCAAGCAAUAUUACGAAGC ; retrieve measured self-splicing fitness (ln).
Result :: -1.87

Query :: Param item = GCUUAGCAAUAUUACGUUAU ; retrieve measured self-splicing fitness (ln).
Result :: -0.881

Query :: Param item = GGCAAGCAAUAUUACGGAGA ; retrieve measured self-splicing fitness (ln).
Result :: -2.22
